ASSAY: Plasma Stability Assay of Example A3, mouse plasma
MEASUREMENT PARAMETERS: % of prodrug compound remaining, 37° C., 240 min
MEASURED QUANTITY: Mouse Plasma Prodrug (%)
Numbers only, in %.

Some entries whose results are on file:
[
  {
    "COMPOUND": "COc1ccc([C@@]23CCC(OC(=O)c4cccc(C)c4)=C[C@@H]2N(C)CC3)cc1OC [Compound 374]",
    "Mouse Plasma Prodrug (%)": 0
  },
  {
    "COMPOUND": "COc1ccc([C@@]23CCC(OC(=O)c4cccc(C(C)(C)C)c4)=C[C@@H]2N(C)CC3)cc1OC [Compound 375]",
    "Mouse Plasma Prodrug (%)": 0
  },
  {
    "COMPOUND": "COc1ccc([C@@]23CCC(OC(=O)c4ccc(N(C)C)cc4)=C[C@@H]2N(C)CC3)cc1OC [Compound 355]",
    "Mouse Plasma Prodrug (%)": 0.0
  },
  {
    "COMPOUND": "COc1ccc([C@@]23CCC(OC(=O)C4CC4)=C[C@@H]2N(C)CC3)cc1OC [Compound 312]",
    "Mouse Plasma Prodrug (%)": 0.8
  }
]

Give me Mouse Plasma Prodrug (%) for each of these compounds, listed below.
1. C=C(C)C(=O)OC1=C[C@@H]2N(C)CC[C@]2(c2ccc(OC)c(OC)c2)CC1 [Compound 315]
2. COc1ccc([C@@]23CCC(OC(=O)C(c4ccccc4)c4ccccc4)=C[C@@H]2N(C)CC3)cc1OC [Compound 306]
3. C/C=C(\C)C(=O)OC1=C[C@@H]2N(C)CC[C@]2(c2ccc(OC)c(OC)c2)CC1 [Compound 313]
4. COc1ccc([C@@]23CCC(OC(=O)c4c(C)cccc4C)=C[C@@H]2N(C)CC3)cc1OC [Compound 372]
5. COc1ccc([C@@]23CCC(OC(=O)c4ccc(C#N)cc4)=C[C@@H]2N(C)CC3)cc1OC [Compound 354]
6. COc1ccc([C@@]23CCC(OC(=O)c4ccc(C(F)(F)F)cc4)=C[C@@H]2N(C)CC3)cc1OC [Compound 310]

Result string:
1: 1.9; 2: 0.1; 3: 0.0; 4: 64; 5: 0; 6: 0.1

Take each entry in turn and give its Mouse Plasma Prodrug (%).
1. COc1ccc([C@@]23CCC(OC(=O)C(C)(C)C)=C[C@@H]2N(C)CC3)cc1OC [Compound 309]
2. COc1ccc([C@@]23CCC(OC(=O)c4ccc(C(C)C)cc4)=C[C@@H]2N(C)CC3)cc1OC [Compound 371]
3. COc1ccc([C@@]23CCC(OC(=O)c4cccc(N(C)C)c4)=C[C@@H]2N(C)CC3)cc1OC [Compound 307]
4. COc1ccc([C@@]23CCC(OC(=O)c4ccc(F)cc4)=C[C@@H]2N(C)CC3)cc1OC [Compound 353]
5. COc1ccc([C@@]23CCC(OC(=O)c4cccc(C)c4C)=C[C@@H]2N(C)CC3)cc1OC [Compound 373]

Result string:
1: 0.0; 2: 0; 3: 0.0; 4: 0; 5: 1

---

For each entry below, report its Condition 1 Conversion (%) value.
ASSAY: Hydrolysis Assay of Example A2, Condition 1 (SGF with pepsin, pH 1.5, 37° C.)
Assay type: physicochemical
MEASUREMENT PARAMETERS: SGF with pepsin pH 1.5, 37° C., 0.5 mM; time 5 min
Numbers only, in %.

In the examples that follow, each entry is paired with its recorded Condition 1 Conversion (%).
[
  {
    "COMPOUND": "COc1ccc([C@]23CCN(C)[C@H]2CC2(CC3)OCC(C34CC5CC(CC(C5)C3)C4)O2)cc1OC (stereo partly shown)",
    "NUMERIC RESULT": 0
  },
  {
    "COMPOUND": "COc1cccc(C2COC3(CC[C@@]4(c5ccc(OC)c(OC)c5)CCN(C)[C@H]4C3)O2)c1 (stereo partly shown)",
    "NUMERIC RESULT": 0
  },
  {
    "COMPOUND": "COc1ccc([C@]23CCN(C)[C@H]2CC2(CC3)OCC(COc3ccccc3OC)O2)cc1OC (stereo partly shown)",
    "NUMERIC RESULT": 0
  }
]

Could you report Condition 1 Conversion (%) for every entry in the following list?
1. COc1ccc([C@]23CCN(C)[C@H]2CC2(CC3)OCC(COCc3ccccc3)O2)cc1OC (stereo partly shown)
2. COc1ccc([C@@]23CCC(=NNC(=O)CCCC(=O)O)C[C@@H]2N(C)CC3)cc1OC

Result string:
1. 0
2. 100

Quick request: Condition 1 Conversion (%) for each listed item, please.
1. COc1ccc([C@@]23CC/C(=N\OC(C)(C)OC)C[C@@H]2N(C)CC3)cc1OC
2. COc1ccc([C@]23CCN(C)[C@H]2CC2(CC3)OCCS2)cc1OC (stereo partly shown)

Result string:
1. 100
2. 0

---

Kindly state Human Plasma Prodrug (%) for each of the entries shown.
MEASUREMENT PARAMETERS: 10 min, 5 µM

Below are 3 compounds. Give each one its Human Plasma Prodrug (%).
1. CCCC(CCC)C(=O)OC1=C[C@@H]2N(C)CC[C@]2(c2ccc(OC)c(OC)c2)CC1
2. COc1ccc([C@@]23CCC(OC(=O)c4c(C)cc(C)cc4C)=C[C@@H]2N(C)CC3)cc1OC
3. COc1ccc([C@@]23CCC(OC(=O)c4ccc(C(C)C)cc4)=C[C@@H]2N(C)CC3)cc1OC

Result string:
1: >99%; 2: >99%; 3: >99%

---

For each of the compounds below, state its Condition 1 Conversion (%).
ASSAY: Hydrolysis Assay of Example A2, Condition 1 (SGF with pepsin, pH 1.5, 37° C.)
Type: physicochemical
MEASUREMENT PARAMETERS: SGF with pepsin pH 1.5, 37° C., 0.5 mM; time 30 min
Give bare numbers, in %.

[
  {
    "COMPOUND": "COc1cccc(C2COC3(CC[C@@]4(c5ccc(OC)c(OC)c5)CCN(C)[C@H]4C3)O2)c1 (stereo partly shown)",
    "Condition 1 Conversion (%)": 0
  }
]

Dear reader, for each entry below, please note its Condition 1 Conversion (%).
1. COc1ccc([C@]23CCN(C)[C@H]2CC2(CC3)Oc3ccccc3O2)cc1OC
2. COc1ccc([C@]23CCN(C)[C@H]2CC2(CC3)OCC(COc3ccccc3OC)O2)cc1OC (stereo partly shown)
3. COc1ccc([C@]23CCN(C)[C@H]2CC2(CC3)OCC(c3cccc([N+](=O)[O-])c3)O2)cc1OC (stereo partly shown)
4. COc1ccc([C@]23CCN(C)[C@H]2CC2(CC3)OCCS2)cc1OC (stereo partly shown)
5. COc1ccc([C@@]23CCC(=NNC(=O)CCCC(=O)O)C[C@@H]2N(C)CC3)cc1OC
6. CCC(C)CC(=O)OC1=C[C@@H]2N(C)CC[C@]2(c2ccc(OC)c(OC)c2)CC1 (stereo partly shown)

Result string:
0
0
0
0
100
0

---

Exercise: for every item that follows, state its recorded Human Plasma Prodrug (%).
MEASUREMENT PARAMETERS: 60 min, 5 µM

[
  {
    "STRUCTURE STRING": "COc1ccc([C@@]23CCC(OC(=O)c4cccc(C)c4)=C[C@@H]2N(C)CC3)cc1OC",
    "RESULT": ">99%"
  },
  {
    "STRUCTURE STRING": "COc1ccc([C@@]23CCC(OC(=O)c4c(C)cc(C)cc4C)=C[C@@H]2N(C)CC3)cc1OC",
    "RESULT": ">99%"
  }
]

API: the following record is the query input.
Query string: Could you tell me which Human Plasma Prodrug (%) is on file for CCC(C)(CC)C(=O)OC1=C[C@@H]2N(C)CC[C@]2(c2ccc(OC)c(OC)c2)CC1 ?
Result string: >99%
